These data points were gathered from PubChem BioAssay (NCI).

Would you kindly list growth for each of these compounds?
Test system: BT-549 breast
experimental.details: NCI-60 one-dose screen, 48 h (100 = growth as untreated, 0 = no growth, -100 = all killed)
stated.conditions: 10 µM unless noted
The panel holds about 83,000 compounds, 20% with a hit somewhere; the sample as a whole holds those more often. The source made the active and inactive calls. Rule for the calls: active = growth percent below 10; inactive = the rest.

Ask | Give the observed growth of CCOc1cc2c(cc1OCC)C(c1cc(C)c(O)c(C)c1)NCC2 (stereo unspecified) for BT-549 breast.
Reply | 107% (inactive)

Ask | Would you please give the reported growth of O=C(Nc1ccc(Cl)cc1)c1cc2ccccc2cc1OP(=O)(O)O with BT-549 breast?
Reply | 11.7% (inactive)

Ask | Name the value of growth reported for NC(CCl)=NCCC[C@H](N)C(=O)O when tested on BT-549 breast.
Reply | 129% (inactive)

Ask | With BT-549 breast as the test system, provide measured growth for this compound: COc1cc(/C=C/C(=O)c2ccc(Cl)cc2)cc(CN2CCCCC2)c1O
Reply | 91.2% (inactive)

Ask | Fill in growth for CN1CCN(c2nc(Nc3ccc(O)cc3)nc3ccccc23)CC1 tested with BT-549 breast.
Reply | 70.8% (inactive)

Ask | State, for BT-549 breast, measured growth of the compound listed here: Cc1nn(-c2nc3ccccc3[nH]2)c2c1C(c1ccc(OCC(N)=O)cc1)CC(=O)N2 (stereo unspecified)
Reply | 105% (inactive)

Ask | Please tell me the measured growth for CC(C)[C@H](NC(=O)Cn1cc(C(=O)O)nn1)C(=O)O ; system: BT-549 breast.
Reply | 104% (inactive)

Ask | Send back BT-549 breast growth of Cn1c(C(=O)c2cccc3ccccc23)nc2ccccc21 only.
Reply | 13% (inactive)

Ask | Provide growth, system BT-549 breast, entry CCOc1ccc2c(c1)CN(Cc1ccc(Cl)cc1)CO2
Reply | 112% (inactive)

Ask | Report value: growth, system: BT-549 breast, compound: COc1ccc(Cn2c(Br)c3c(c2Br)-c2nc(N)sc2CC3)cc1
Reply | 51.4% (inactive)

Ask | Look up and report growth, with BT-549 breast as system, for COc1cc(C=C2C(=O)N(C)C(=O)N(C)C2=O)cc(CN2CCCCC2)c1O
Reply | 101% (inactive)

====

System: NCI-H460 lung
experimental.details: NCI-60 one-dose screen, 48 h
stated.conditions: 10 µM unless noted
This is part of a sample that, as a whole, favours compounds with a hit. Of some 83,000 tested, about 20% had one in any assay. The source made the active and inactive calls. The calls were made as follows: active = growth percent below 10; inactive = the rest.
API: response.call in active, inactive

Ask | Recorded test outcome, item O=C(Nc1ccc(Cl)cc1)N1CCN(c2ccc3nncn3n2)CC1
Reply | active

Ask | Dear all, I need the recorded test outcome for CC(C)C[C@H](C(=O)N[C@@H](C)C(N)=O)N1CC=CCN(O)S1(=O)=O , thank you.
Reply | inactive

Ask | Check the results log: what was the call for COC(=O)/C(CCC=C(C)C)=C1\[C@@H](OC(C)=O)C[C@@]2(C)[C@H]1C[C@@H](O)[C@H]1[C@@]3(C)CC[C@H](NCCO)[C@@H](C)[C@@H]3CC[C@@]12C ?
Reply | inactive

Ask | Status in this test for COC(=O)/C(CCC=C(C)C)=C1\[C@@H](OC(C)=O)C[C@@]2(C)[C@H]1C[C@@H](O)[C@H]1[C@@]3(C)CC[C@H](NCc4ccccc4)[C@@H](C)[C@@H]3CC[C@@]12C ?
Reply | inactive

Ask | What did this assay record as the result for CCC1=C[C@@H]2CN(C1)Cc1c([nH]c3ccccc13)[C@@](C(=O)OC)(c1cc3c(cc1OC)N(C)[C@H]1[C@@](O)(C(=O)OC)[C@H](OC(C)=O)[C@]4(CC)[C@@H]5C[C@@H]5CN5CC[C@]31[C@@H]54)C2 ?
Reply | active

Ask | Hi, do you know how COc1ccc(-c2nc(-c3ccccn3)c(-c3ccccn3)n2CC(C)C)cc1OC1CCCC1 came out in this test?
Reply | active

Ask | Assay outcome for O=C(c1ccccc1)N(C(=S)NCCc1ccc(Cl)cc1)c1ccc(Cl)cc1 : what was it?
Reply | inactive

Ask | Called result for CCN1C(=O)N(CC)C2C1NC(=S)N2/N=C/C=C/c1ccccc1OC (stereo not drawn)
Reply | active

Ask | Record request — test call for CC1CCCCN1CCCNC(=O)c1ccc2c(c1)sc1nc(-c3ccc(F)cc3)cn12 (stereo not drawn)
Reply | inactive

Ask | For COc1ccc(-n2c(C(O)c3ccccc3)n[nH]c2=S)cc1 (stereo not drawn) , which call appears in the assay record?
Reply | inactive

Ask | Name the outcome recorded for CC(=O)SC1CC(=O)C=C2CCC3C4CCC(=O)OC4(C)CCC3C21C (stereo not drawn) in the assay.
Reply | inactive

Ask | Please share the test call associated with O=C(Nc1ccc(Br)cc1F)c1cc(Cl)ccc1O .
Reply | active

Ask | Which result was noted for this compound in the test: Cc1cccc2c(=O)c3c(sc12)c(N1CCNCC1)nc1ccccc13
Reply | inactive

Ask | Hey, what did the test say about CCCCC1CCc2cccc3c(SCC(=O)N(C)c4ccc(Cl)cc4)cc[n+]1c23 (stereo not drawn) ?
Reply | inactive

Ask | Give the logged outcome of this assay for the following compound: Nc1nc(-c2cnccn2)nn1-c1nc2ccccc2s1
Reply | inactive

Ask | # outcome recorded in this test, key = CN1CCN(Cc2ccc(C(=O)Nc3cncc(C#Cc4cnc5cccnn45)c3)cc2C(F)(F)F)CC1
Reply | inactive

Ask | Call for entry O=C(NCCCN1CCC(N2CCCCC2)CC1)C1=Cc2cc(Br)ccc2OC1 :
Reply | inactive

Ask | Please state the recorded outcome for this compound: CC1=C(CC(=O)c2cccc([N+](=O)[O-])c2)C(=O)c2ccccc2C1=O
Reply | active

Ask | Hi, sorry to bother you, what did the test record for COc1cc2nc(NC3CCC3)nc(NC3CCN(C(C)C)CC3)c2cc1OC ?
Reply | inactive

Ask | Per the assay record, what outcome was assigned to CN1CCN(Cc2ccc(C(=O)Nc3cncc(C#Cc4cnc(N)c5ccccc45)c3)cc2C(F)(F)F)CC1 ?
Reply | active

Ask | What did this assay record as the result for Cc1sc2ncnc(Sc3nc4ccccc4[nH]3)c2c1C ?
Reply | active

Ask | What call does the record list for COc1cc(C2C(C#N)=C(N)OC3=C2C(=O)c2ccccc2C3=O)cc(OC)c1OC (stereo not drawn) ?
Reply | active

Ask | Short answer needed: outcome of this test for Cc1ccccc1CNC(=O)C1CN(c2ccc(Cl)cc2)N(c2ccc(Cl)cc2)C1=O (stereo not drawn) ?
Reply | inactive

Ask | Entry Cc1ccc(S(=O)(=O)c2c(COC(=O)c3cccc(C)c3)c(-c3ccccc3)nn2C)cc1 : call = ?
Reply | inactive

Ask | Hi, do you know how Cc1ccc(N=NC2C(=O)N(c3ccc(Cl)cc3)N(c3ccc(Cl)cc3)C2=O)cc1 came out in this test?
Reply | inactive

Ask | Write down the call the test reported for this compound. Item: CCOc1ccc2nc(C)cc(Nc3ccc(Br)cc3)c2c1
Reply | inactive

Ask | In this assay, the call recorded for COc1cc(C2CC(c3ccc(Nc4nc(NCCO)nc(N5CCOCC5)n4)cc3)=NN2c2cc(Cl)cc(Cl)c2)cc(OC)c1OC (stereo not drawn) was what?
Reply | inactive

Ask | Short answer needed: outcome of this test for O=c1oc2ccc(I)cc2c(=O)n1-c1ccc(Br)cc1F ?
Reply | active

Ask | Call for entry COc1ccc2oc(=O)cc(Cn3cc(Cn4cnc5c4c(=O)n(C)c(=O)n5C)nn3)c2c1 :
Reply | inactive

Ask | Assay result, entry O=C(Nc1nc2c(s1)CCc1c-2c(Br)n(Cc2ccccc2)c1Br)c1ccccc1 — outcome?
Reply | inactive

Ask | Which outcome was entered for the compound CCOC(=O)C1=C(C)c2ccc(OC)c(OC)c2C1 in this test?
Reply | inactive

Ask | Fill in: this test's call for COc1cc(C=C2C(=O)N(C)C(=O)N(C)C2=O)cc(CN2CCCCC2)c1O is ___
Reply | inactive

Ask | I'd appreciate the recorded outcome for O=C(Nc1ccc(I)cc1F)c1cc(F)ccc1O from this test.
Reply | active

Ask | Please let me know the test result on file for O=c1c2cc(F)ccc2sc2c(Nc3ccncc3)nc3ccccc3c12 .
Reply | active

Ask | Status in this test for COc1ccc(-c2nc(-c3ccccc3)c(-c3ccccc3)[nH]2)cc1OC1CCCCC1 ?
Reply | inactive

Ask | Answer briefly: the call reported for O=C1c2cc(I)ccc2Oc2cc([N+](=O)[O-])ccc2N1c1ccc(Cl)cc1F in this assay.
Reply | inactive

Ask | Could you kindly confirm the outcome this assay logged for Cc1nc(Nc2cn[nH]c2C(=O)Nc2ccc(CN3CCN(C)CC3)cc2)c2ccsc2n1 ?
Reply | inactive

Ask | Fill in: this test's call for O=S1(=O)CCN(Cc2ccccc2)CC1 is ___
Reply | inactive
